Data credit: patent US20250027068A1

Please provide measured Enzyme Activity Endpoint Assay (purified): Fab′2 for the entries that follow.
# target.entity: pooled human IgG (human); also: test concentration or dose not given here
# method: cell-based or functional assay
Numbers only, in ng/µL.

1) PRT-208 (enzyme) MEVVEVWPYGQNPNGKTEILSQTEDSESLQRLRDIEDFQAEKKKENVVYTKWLDGVTVKDHDFRKIVDGNIAYYATPLLNGRGFYDINKDFNRDSDKCAAAVAANMFHYWLDINRDNVDRFLRQNPEKHGIIELPDGQLKLSDFLNTYESDDGYRDKSKLFDFISNNFNGPVWTDKLLDNYINGYGYNYKYGRTIEDPTKNTSKINFFKEVFNEKILTDNHSIRDQNEFSDLLSEALYTGKAIGLSYGPAGLRHSLGHIISVWGADLDADGNVVAIYVTDSDDKKLTIGDERVGLKRYKISYDDEGRARLTAYEEKDNTGGQIRGLWTLDTGKQAWADYFDKTEQTGTDQAEQLEHHHHHH    0

We next turn to a different binder, shown below.
Given the entry PRT-213 (enzyme) MEVVEVWPYGQNPNGKTEILSQTEDSESLQRLRDIEDFQAEKKKEGVVYTKWLDGVTVKDHDFRKIVDGNIEYYATPLLNGRGWYDINKDFNRDSDKCAAAVAANMFHYWLDRNRDNVDRFLKQNPEKHGIIELPDGQLKLSDFLNTYESDNGYRDKSKLFDFISKNFNGPVWTDKLLDNYINGYGYNYKYGRTIEDPTKNTSKINFFKKVFNEKILTDIHSIRNQNEFSDLLSEALYTGKAIGLSYGPAGLRHSLGHIISVWGADFDEDGNVVAIYVTDSDDKKLTIGDERVGLKRYKVSTDDEGRARLTAYTETDNTGGQVRGLYTLDTGTQAWADYFDKTEQTGTDQAEQLEHHHHHH , report its measured Enzyme Activity Endpoint Assay (purified): Fab′2.
0
